Cited source for all entries: patent US20240272170A1

biological target: T1, KA peptide (Octet assay of PS621 variants); test: Octet (BLI), 30 C
T1 construct: XAKLDEESILKQK with X = K
T1 peptide: KAKLDEESILKQK

| BINDER | Octet response |
| --- | --- |
| PS1108 (designed binder, Variant of PS621) MHSKFSHAGRICGAKFKVGEPIYRCKECSFDDTCVLCVNCFNPKDHTGHHVYTTICTERNNGICDCGDKEAWNHTLFCKAEEG | 5 |
| PS1105 (designed binder, Variant of PS621) MHSKFSHAGRICGAKFKVGEPIYRCKECSFDDTCVLCVNCFNPKDHTRHHVYTTICTEFNNGICDCGDKEAWNHTLFCKAEEG | 2.6 |
| PS1110 (designed binder, Variant of PS621) MHSKFSHAGRICGAKFKVGEPIYRCKECSFDDTCVLCVNCFNPKDHTGHHVYTTICTEFNNGECDCGDKEAWNHTLFCKAEEG | 6.6 |
| PS1104 (designed binder, Variant of PS621) MHSKFSHAGRICGAKFKVGEPIYRCKECSFDDTCVLCVNCFNPKDHRGHHVYTTICTEFNNGICDCGDKEAWNHTLFCKAEEG | 7.3 |
| PS1112 (designed binder, Variant of PS621) MHSKFSHAGRICGAKFKVGEPIYRCKECSFDDTCVLCVNCFNPKDHTGHHVYTTICTEFNNGICDCGDKTAWNHTLFCKAEEG | 2.3 |
